Would you kindly list Ratio IC50 for each of these compounds?
- Organism: Homo sapiens
- procedure text: Selectivity ratio of IC50 for SRC (unknown origin) to IC50 for BTK (unknown origin)
Answers are plain numbers.

Previously resolved entries follow.
Nc1nccn2c([C@@H]3CCCN(C4CCOCC4)C3)nc(-c3ccc(C(=O)Nc4cc(C(F)(F)F)ccn4)cc3F)c12 :: 93
COCC(=O)N1CCO[C@@H](c2nc(-c3ccc(C(=O)Nc4cc(C(F)(F)F)ccn4)cc3F)c3c(N)nccn23)C1 :: 333
CC(C)C(=O)N1CCO[C@@H](c2nc(-c3ccc(C(=O)Nc4cc(C(F)(F)F)ccn4)cc3F)c3c(N)nccn23)C1 :: 1160

Please find the next compound below.
**Query** Which Ratio IC50 reading was recorded for the compound "COCC(=O)N1CCC[C@@H](c2nc(-c3ccc(C(=O)Nc4cc(C(F)(F)F)ccn4)cc3F)c3c(N)nccn23)C1" ?
**Result** 251
